Value source: PubChem BioAssay AID1851

experimental_system: Cytochrome P450 2C9 (Homo sapiens) (UniProt P11712)
Sequence (P11712 whole entry, looked up): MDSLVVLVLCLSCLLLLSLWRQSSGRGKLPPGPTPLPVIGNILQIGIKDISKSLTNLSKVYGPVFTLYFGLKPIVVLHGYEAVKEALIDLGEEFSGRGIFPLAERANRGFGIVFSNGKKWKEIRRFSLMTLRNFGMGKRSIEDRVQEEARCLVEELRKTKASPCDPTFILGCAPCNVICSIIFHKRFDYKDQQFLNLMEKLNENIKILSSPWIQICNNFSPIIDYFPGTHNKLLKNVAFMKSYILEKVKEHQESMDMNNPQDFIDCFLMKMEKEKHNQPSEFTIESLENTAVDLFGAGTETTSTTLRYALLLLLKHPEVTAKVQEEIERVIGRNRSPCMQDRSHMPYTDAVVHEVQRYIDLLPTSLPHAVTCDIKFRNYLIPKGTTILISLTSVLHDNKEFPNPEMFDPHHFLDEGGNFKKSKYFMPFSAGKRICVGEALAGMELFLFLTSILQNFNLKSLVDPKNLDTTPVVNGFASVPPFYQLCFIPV
procedure_details: Cytochrome panel assay with activity outcomes; also: % is scaled to controls: 0 for no effect and ±100 for the full control effect
test_context: recombinant CYP, pro-luciferin dealkylation, luminescence, p450-cyp2c9; series mostly up to 57.1 µM
The whole screen tested about 16,000 compounds, of which about 4,000 (25%) were called active. About 26% were inconclusive and are not listed. A selection follows.
outcome_measure: activity, negative = inhibition

* O=C(O)[C@H](/C=C\c1ccccc1)c1ccccc1 | -17.8% [at 11.4 µM] (inactive)
* COc1ccc2[nH]cc(CCNc3nc(-c4ccccc4OC)nc4ccccc34)c2c1 | -1.54% [at 2.29 µM] (inactive)
* COCCNc1nc(-c2cccc(OC)c2)nc2ccccc12 | -26.4% [at 2.29 µM] (inactive)
* COc1ccc2[nH]cc(CCNc3ccnc(-c4ccc(N(C)C)cc4)n3)c2c1 | -7.16% [at 2.29 µM] (inactive)
